- Tested on: E. aerogenes NCTC10006
- METHOD SUMMARY: MIC, agar plate dilution method
- Type: cell-based
- APPLIED CONDITIONS: Klebsiella aerogenes; E. aerogenes NCTC10006; 37° C., 20 hours; read-out: MIC
REPORTED ENDPOINT: MIC

compound="C=C(C/C=C(\\C)CCC=C(C)C)CCC(C)(C)/C=C/CC/C(C)=C\\COC(COP(=O)(O)OC1OC(C(N)=O)C(C)(O)C(OC(N)=O)C1OC1OC(COC2OC(CO)C(O)C(O)C2O)C(OC2OC(C)C(OC3OC(C(=O)O)C(O)C(O)C3O)C(O)C2NC(C)=O)C(O)C1NC(C)=O)C(=O)O (centres unmarked) [K04-0144A]" tested_system="E. aerogenes NCTC10006" measured="> 16 µg/mL"
compound="CC(=O)NC[C@H]1CN(c2ccc(N3CCOCC3)c(F)c2)C(=O)O1 [linezolid, reference compound]" tested_system="E. aerogenes NCTC10006" measured="> 32 µg/mL"
compound="NCC[C@H](O)C(=O)N[C@@H]1C[C@H](N)[C@@H](O[C@H]2O[C@H](CN)CC[C@H]2N)[C@H](O)[C@H]1O[C@H]1O[C@H](CO)[C@@H](O)[C@H](N)[C@H]1O [arbekacin, reference compound]" tested_system="E. aerogenes NCTC10006" measured="≤ 0.25 µg/mL"
compound="C=C(C/C=C(\\C)CCC=C(C)C)CCC(C)(C)/C=C/CC/C(C)=C\\COC(COP(=O)(O)OC1OC(C(N)=O)C(C)(O)C(OC(N)=O)C1OC1OC(CO)C(OC2OC(C)C(OC3OC(C(N)=O)C(O)C(O)C3O)C(O)C2NC(C)=O)C(O)C1NC(C)=O)C(=O)O (centres unmarked) [K04-0144C]" tested_system="E. aerogenes NCTC10006" measured="32 µg/mL"
compound="C=C(C/C=C(\\C)CCC=C(C)C)CCC(C)(C)/C=C/CC/C(C)=C\\COC(COP(=O)(O)OC1OC(C(N)=O)C(C)(O)C(OC(N)=O)C1OC1OC(CO)C(OC2OC(C)C(OC3OC(C(=O)O)C(O)C(O)C3O)C(O)C2NC(C)=O)C(O)C1NC(C)=O)C(=O)O (centres unmarked) [K04-0144B]" tested_system="E. aerogenes NCTC10006" measured="> 16 µg/mL"
